Taken from the supplement of paper PMC9170038.

- Tested on: MS2 coat protein
- assay_protocol: apparent KD of MS2 coat protein; designed switch direction (-1 OFF switch, 1 ON switch): 1; higher = weaker reporter binding
- measurement_context: Eterna round: R95; input ligand: microRNA oligo, concentration not stated
reported_property: apparent KD of MS2 coat protein (nM)
Give just the numeric value; nM need not be written.

>  <sequence_text>
AGGCAAGCUUUUUGCUGGUAUGGAGGAUAACAUGAGGAUCACCCAUGUAUUGGAGGUGUUGAAGAUUUGAGAAAGAA [JR_SHM208A_Sub005] (puzzle: Sensor for hsa-mir-208a)

>  <apparent KD of MS2 coat protein [nM]>
149

$$$$
>  <sequence_text>
UCUUGGUUUUUGCUCGUUUUUUGUGUUGAACAUGAGGAUCACCCAUGUAUUGUACGGUCCAAUUUAAUAAUAGUCCG [JMF 65] (puzzle: Sensor for hsa-mir-208a)

>  <apparent KD of MS2 coat protein [nM]>
19.7

$$$$
>  <sequence_text>
GCAGAACAUGAGGAUCACCCAUGUCUCUAAUAUUGAGGAUAUGGACACGGUAUAUCCGAACCAGAAGGCGAACUGC [SS1 Teenbexe 17] (puzzle: Same State 1)

>  <apparent KD of MS2 coat protein [nM]>
34

$$$$
>  <sequence_text>
AGUCCAGCCUGAGCUGGACAAAAGCAUGUACAUGAGGAUCACCCAUGUCAUGUACAAGCUUUUUGCUCGUAAUAAUA [Mat - hsa-mir-208a - Mod of JL - D31] (puzzle: Sensor for hsa-mir-208a)

>  <apparent KD of MS2 coat protein [nM]>
12.4

$$$$
>  <sequence_text>
AUAUAACAUGAGGAUCACCCAUGUCUCUAAAGUCGAGGAUAUGGGCAGGUUAUAUCCGAACCAGAAGGCGGGUUAU [SS1 Teenbexe 8] (puzzle: Same State 1)

>  <apparent KD of MS2 coat protein [nM]>
123

$$$$
>  <sequence_text>
UCAAGCGUUUGGCUCGUUUUAUGUGUUGAACAUGAGGAUCACCCAUGUAUUGUACGAUCCAGUUAGAUGGUAUUUUG [JR_SHM208A_Sub040] (puzzle: Sensor for hsa-mir-208a)

>  <apparent KD of MS2 coat protein [nM]>
104

$$$$

Prompt: Param readout = apparent KD of MS2 coat protein; param system = MS2 coat protein; param query = UACAAUCUAUCUGAGGAUAUCAUGAAAAAAACAUGAGGAUCACCCAUGUGCAGGAAAACUGCAUAUGAGAAGGCAGAUAGAUUGG [salish99_SS2_r3_007] (puzzle: Same State 2) ; response: value
Completion: 3390

Prompt: # get_value(readout= apparent KD of MS2 coat protein, system= MS2 coat protein) for UCUUGGUUUUUGCUCGUUUUUUGUGUUGAACAUGAGGAUCACCCAUGUAUUGUACGGUCCAGUUUGAUAAUGGUCCG [JMF 34] (puzzle: Sensor for hsa-mir-208a)
Completion: 14.3

Prompt: Value wanted: apparent KD of MS2 coat protein (MS2 coat protein) of entry UCUUGGUUUUUGCUCGUUUUUUGUGUUGAACAUGAGGAUCACCCAUGUAUUGUACAGUCCAGUUUAAUAAUGGUCCG [JMF 55] (puzzle: Sensor for hsa-mir-208a)
Completion: 25.6

Prompt: Query for MS2 coat protein: what apparent KD of MS2 coat protein does the record show for UUAAAACAUGAGGAUCACCCAUGUAAUAAUAUGGGAGGAUAUCAGAUUUAAUUUAAUUUAUGAGAAGGCCUAAAUU [Mat - Same State 1 - Mod of Eli - D61] (puzzle: Same State 1) ?
Completion: 163

Prompt: Any idea what apparent KD of MS2 coat protein came out for UUGCAGUCAGGUGAGGAUAUCAUGAAUUAAACAUGAGGAUCACCCAUGUGCUGCCUUGCAGCAUAUGAGAAGGCACCUGGCUGCU [JL-ss2-3.01 Brourd Mod] (puzzle: Same State 2) on MS2 coat protein?
Completion: 185

Prompt: API: value(readout=apparent KD of MS2 coat protein, system=MS2 coat protein) for record AGGAAGGAGACUGAGGAUAUCGUAAGGAGGACAUGAGGAUCACCCAUGUGUAUAGGAUUGGAGGACGAGAAGGCAGAGGAGUGGG [JR_SS2_Sub048] (puzzle: Same State 2)
Completion: 19.7

Prompt: Hi! What's the reported apparent KD of MS2 coat protein for UUAAGCAACGGGCAGGAUAUGUAUUAAUAUACAUGAGGAUCACCCAUGUGCAGGUGUAACACCUGACAGAAGGGCCAAUCGCUGC [Soteed - 10] (puzzle: Same State 2) on MS2 coat protein?
Completion: 509

Prompt: # get_value(readout= apparent KD of MS2 coat protein, system= MS2 coat protein) for GUGGUGUAGAUACAGGAUAUGUUGCUCGUAACAUGAGGAUCACCCAUGUAUCUAUGAGAUAAAAUGCAGAAGGGUGCACACCACU [Mat - Same State 2 - Mod of UCT - D75] (puzzle: Same State 2)
Completion: 245

Prompt: GET /values?readout=apparent KD of MS2 coat protein&system=MS2 coat protein&item= AUUAAACAUGAGGAUCACCCAUGUCAACAAAGUCGAGGAUAUGGGCAUAUUAUCUAAUAACCAGAAGGCGAAUAAU [salish99_ss1_r3_085] (puzzle: Same State 1)
Completion: 194
